Measured inhibition in vivo at 50 mg/kg of individual entries
- Test system: Rattus norvegicus
- protocol summary: Antiinflammatory activity in rat assessed as inhibition of carrageenan-induced hind paw oedema at 50 mg/Kg, po administered 30 mins before carrageenan challenge measured after 4 hrs relative to control
- Type: functional
measured endpoint: inhibition in vivo at 50 mg/kg (%)

1) O=C(NCCc1c[nH]c2ccccc12)c1csc(Nc2ccc([N+](=O)[O-])cc2)n1; 50
2) Cc1ccc(Nc2nc(C(=O)NCCc3c[nH]c4ccccc34)cs2)cc1; 38
3) O=C(NCCc1c[nH]c2ccccc12)c1csc(Nc2ccc(Cl)cc2)n1; 41
4) O=C(NCCc1c[nH]c2ccccc12)c1csc(-c2cccs2)n1; 62
5) O=C(NCCc1c[nH]c2ccccc12)c1csc(Nc2ccc(F)cc2)n1; 42
6) COc1ccc2c(c1)c(CC(=O)O)c(C)n2C(=O)c1ccc(Cl)cc1; 86
7) Nc1nc(C(=O)NCCc2c[nH]c3ccccc23)cs1; 82
8) O=C(NCCc1c[nH]c2ccccc12)c1csc(Cc2ccccc2)n1; 42
9) Cc1nc(C(=O)NCCc2c[nH]c3ccccc23)cs1; 50
10) O=C(NCCc1c[nH]c2ccccc12)c1csc(Nc2ccc(Br)cc2)n1; 46

====

- protocol summary: Cytotoxicity against human HCT116 cells assessed as cell survival at 10 uM measured after 48 hrs by MTT assay relative to control
- Format: functional
- measurement conditions: HCT-116, 48 h, read-out: Survival
hey, just use 1.0 if measured viability at 10 µM is less than 80%, otherwise 0.0

1. O=C(NCCc1c[nH]c2ccccc12)c1csc(Nc2ccc([N+](=O)[O-])cc2)n1; 1.0
2. COc1cccc2c1C(=O)c1c(O)c3c(c(O)c1C2=O)C[C@@](O)(C(=O)CO)C[C@@H]3O[C@H]1C[C@H](N)[C@H](O)[C@H](C)O1; 1.0
3. O=C(NCCc1c[nH]c2ccccc12)c1csc(-c2cccs2)n1; 0.0
4. Cc1ccc(-c2nc(C(=O)NCCc3c[nH]c4ccccc34)cs2)cc1; 0.0
5. Cc1nc(C(=O)NCCc2c[nH]c3ccccc23)cs1; 0.0
6. Nc1nc(C(=O)NCCc2c[nH]c3ccccc23)cs1; 1.0
7. O=C(NCCc1c[nH]c2ccccc12)c1csc(Nc2ccc(Br)cc2)n1; 1.0
8. O=C(NCCc1c[nH]c2ccccc12)c1csc(-c2ccccc2)n1; 0.0
9. O=C(NCCc1c[nH]c2ccccc12)c1csc(-c2ccc(Cl)cc2)n1; 0.0
10. O=C(NCCc1c[nH]c2ccccc12)c1csc(-c2ccco2)n1; 0.0
11. O=C(NCCc1c[nH]c2ccccc12)c1csc(Cc2ccccc2)n1; 0.0
12. O=C(NCCc1c[nH]c2ccccc12)c1csc(Nc2ccccc2)n1; 1.0

====

- protocol summary: Cytotoxicity against human MDA-MB-231 cells assessed as cell survival at 10 uM measured after 48 hrs by MTT assay relative to control
- Type: functional
- measurement conditions: MDA-MB-231, 48 h, read-out: Survival
measured endpoint: viability at 10 µM (%)

1) O=C(NCCc1c[nH]c2ccccc12)c1csc(Cc2ccccc2)n1; 89
2) COc1cccc2c1C(=O)c1c(O)c3c(c(O)c1C2=O)C[C@@](O)(C(=O)CO)C[C@@H]3O[C@H]1C[C@H](N)[C@H](O)[C@H](C)O1 [DOXORUBICIN]; 22.1
3) O=C(NCCc1c[nH]c2ccccc12)c1csc(Nc2ccc(Br)cc2)n1; 41.5
4) O=C(NCCc1c[nH]c2ccccc12)c1csc(Nc2ccccc2)n1; 20.1
5) Nc1nc(C(=O)NCCc2c[nH]c3ccccc23)cs1; 24.8
6) CC(=O)c1nc(C(=O)NCCc2c[nH]c3ccccc23)cs1 [BACILLAMIDE A]; 105
7) O=C(NCCc1c[nH]c2ccccc12)c1csc(-c2ccc(Cl)cc2)n1; 94.8
8) O=C(NCCc1c[nH]c2ccccc12)c1csc(-c2cccs2)n1; 85.4
9) Cc1nc(C(=O)NCCc2c[nH]c3ccccc23)cs1; 90.4
10) O=C(NCCc1c[nH]c2ccccc12)c1csc(-c2ccccc2)n1; 88.3
11) O=C(NCCc1c[nH]c2ccccc12)c1csc(Nc2ccc([N+](=O)[O-])cc2)n1; 92.3
12) O=C(NCCc1c[nH]c2ccccc12)c1csc(-c2ccco2)n1; 84.4
13) Cc1ccc(-c2nc(C(=O)NCCc3c[nH]c4ccccc34)cs2)cc1; 87.3

====

- Test system: Rattus norvegicus
- protocol summary: Antiinflammatory activity in rat assessed as inhibition of carrageenan-induced hind paw oedema at 50 mg/Kg, po administered 30 mins before carrageenan challenge measured after 4 hrs relative to control
- Assay type: functional
Below, each entry is listed with its recorded inhibition in vivo at 50 mg/kg.
measured endpoint: inhibition in vivo at 50 mg/kg (%)

1. CC(=O)c1nc(C(=O)NCCc2c[nH]c3ccccc23)cs1 [BACILLAMIDE A]; 42
2. O=C(NCCc1c[nH]c2ccccc12)c1csc(-c2ccc(Cl)cc2)n1; 56
3. Cc1ccc(-c2nc(C(=O)NCCc3c[nH]c4ccccc34)cs2)cc1; 70
4. O=C(NCCc1c[nH]c2ccccc12)c1csc(-c2ccccc2)n1; 57
5. O=C(NCCc1c[nH]c2ccccc12)c1csc(-c2ccco2)n1; 46
6. O=C(NCCc1c[nH]c2ccccc12)c1csc(Nc2ccccc2)n1; 78
